- target desc: human recombinant PDE9 enzyme (Homo sapiens, UniProt O76083)
- Construct: made in house; host or cells: SF-9 insect cells
- Sequence (O76083 whole entry): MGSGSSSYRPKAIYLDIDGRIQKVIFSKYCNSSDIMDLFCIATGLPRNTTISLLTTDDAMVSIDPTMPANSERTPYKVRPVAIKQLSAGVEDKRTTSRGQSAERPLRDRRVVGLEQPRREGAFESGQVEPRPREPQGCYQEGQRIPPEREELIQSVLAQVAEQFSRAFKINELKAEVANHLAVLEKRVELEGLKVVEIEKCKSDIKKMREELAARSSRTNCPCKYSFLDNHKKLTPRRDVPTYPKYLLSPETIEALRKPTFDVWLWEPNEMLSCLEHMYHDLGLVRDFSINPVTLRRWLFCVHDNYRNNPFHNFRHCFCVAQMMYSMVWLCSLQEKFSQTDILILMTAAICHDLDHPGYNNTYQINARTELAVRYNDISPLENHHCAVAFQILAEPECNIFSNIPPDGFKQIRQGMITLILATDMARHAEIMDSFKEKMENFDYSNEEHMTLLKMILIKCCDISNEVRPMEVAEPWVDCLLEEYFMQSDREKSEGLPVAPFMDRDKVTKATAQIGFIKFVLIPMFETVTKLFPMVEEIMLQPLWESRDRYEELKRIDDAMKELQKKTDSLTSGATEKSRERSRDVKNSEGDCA
- test details: Phosphodiesterase 9 (PDE9) inhibitory activity, Scintillation Proximity (SPA) assay
- Format: biochemical
- experimental setup: human recombinant PDE9 from SF-9 cells; 50 nM [3H]cGMP; room temperature, 30 min; Examples 3-114; read-out: G5678A (U): IC50
pIC50: −log10 of the molar value.
property label: pIC50

Example results:
[[record]]
compound = "C[C@@H]1CN(Cc2c(F)cccc2F)C[C@H]1c1nc2c(cnn2C2CCOCC2)c(=O)[nH]1"
experimental_value = 8.09

[[record]]
compound = "CC[C@@H]1CN(Cc2cnc(C)nc2)C[C@H]1c1nc2c(cnn2C(C)C)c(=O)[nH]1 (relative stereo)"
experimental_value = 8.13

[[record]]
compound = "Cc1ccc(CN2C[C@@H](C)[C@H](c3nc4c(cnn4C4CCCC4)c(=O)[nH]3)C2)cn1 (racemic)"
experimental_value = 8.15

[[record]]
compound = "C[C@@H]1CN(Cc2ccnc3ccccc23)C[C@H]1c1nc2c(cnn2C2CCOCC2)c(=O)[nH]1"
experimental_value = 8.84


[A] Cc1cccnc1CN1C[C@@H](C)[C@H](c2nc3c(cnn3C3CCCC3)c(=O)[nH]2)C1 (racemic)
[B] C[C@@H]1CN(Cc2ccc3nccnc3c2)C[C@H]1c1nc2c(cnn2C2CCCC2)c(=O)[nH]1 [Example 23]
[C] Cc1ncc(CN2C[C@@H](C)[C@H](c3nc4c(cnn4C4CCC4)c(=O)[nH]3)C2)cn1 (racemic)
### Prompt Rank the 3 compounds: largest pIC50 first, smallest last. Please list the labels according to the requested order.
### Response B, A, C

====

- target desc: human recombinant PDE9 enzyme (Homo sapiens, UniProt O76083)
- Construct: made in house; host or cells: SF-9 insect cells
- test details: Phosphodiesterase 9 (PDE9) inhibitory activity, Scintillation Proximity (SPA) assay
- Type: biochemical
- experimental setup: human recombinant PDE9 from SF-9 cells; 50 nM [3H]cGMP; room temperature, 30 min; additional compounds Ex. 115-228; read-out: G5678A (U):IC50
property label: IC50 (nM)

[[record]]
molecule = "C[C@@H]1CN(Cc2ccc(F)cc2Cl)C[C@H]1c1nc2c(cnn2C2CCCC2)c(=O)[nH]1 (racemic)"
result_unit = "nM"
experimental_value = 93.5


[A] C[C@@H]1CN(Cc2ccc3c(c2)OCCN3C)C[C@H]1c1nc2c(cnn2C2CCCC2)c(=O)[nH]1 (racemic)
[B] COc1cc(CN2C[C@@H](C)[C@H](c3nc4c(cnn4C4CCCC4)c(=O)[nH]3)C2)ccc1F (racemic)
[C] COc1ccc(F)cc1CN1C[C@@H](C)[C@H](c2nc3c(cnn3C3CCCC3)c(=O)[nH]2)C1 (racemic)
### Prompt Hey, quick one: sort these by IC50, low to high? Rank the items, then write their labels in that order.
### Response B, C, A

====

- target desc: human recombinant PDE9 enzyme (Homo sapiens, UniProt O76083)
- Construct: made in house; host or cells: SF-9 insect cells
- test details: Phosphodiesterase 9 (PDE9) inhibitory activity, Scintillation Proximity (SPA) assay
- Assay type: biochemical
- experimental setup: human recombinant PDE9 from SF-9 cells; 50 nM [3H]cGMP; room temperature, 30 min; additional compounds Ex. 115-228; read-out: G5678A (U):IC50
pIC50: −log10 of the molar value.
property label: pIC50

Some solved entries appear below for comparison.
[[record]]
compound = "C[C@@H]1CN(Cc2coc(-c3ccccc3)n2)C[C@H]1c1nc2c(cnn2C2CCCC2)c(=O)[nH]1 (racemic)"
experimental_value = 7.33

[[record]]
compound = "Cc1ccc(CN2C[C@@H](C)[C@H](c3nc4c(cnn4C4CCCC4)c(=O)[nH]3)C2)cc1F (relative stereo) [Example 143]"
experimental_value = 7.45


[A] CCOc1cccc(CN2C[C@@H](C)[C@H](c3nc4c(cnn4C4CCCC4)c(=O)[nH]3)C2)c1 (racemic)
[B] C[C@@H]1CN(CCCc2ccccc2)C[C@H]1c1nc2c(cnn2C2CCCC2)c(=O)[nH]1 (racemic)
### Prompt Please indicate which item has the smaller measured pIC50: A versus B State the label of the item chosen.
### Response B
(B: 6.84, A: 7.26)

====

- target desc: human recombinant PDE9 enzyme (Homo sapiens)
- Construct: made in house; host or cells: SF-9 insect cells
- test details: Phosphodiesterase 9 (PDE9) inhibitory activity, Scintillation Proximity (SPA) assay
- Assay type: biochemical
- experimental setup: human recombinant PDE9 from SF-9 cells; 50 nM [3H]cGMP; room temperature, 30 min; additional compounds Ex. 115-228; read-out: G5678A (U):IC50
pIC50: −log10 of the molar value.
property label: pIC50

Here are 2 compounds together with their reported answers.
[[record]]
compound = "COc1ccc(CN2C[C@@H](C)[C@H](c3nc4c(cnn4C4CCCC4)c(=O)[nH]3)C2)cc1C (racemic)"
property_label = "pIC50"
experimental_value = 7.26

[[record]]
compound = "C[C@@H]1CN(Cc2ccno2)C[C@H]1c1nc2c(cnn2C2CCCC2)c(=O)[nH]1 (racemic)"
property_label = "pIC50"
experimental_value = 7.17


[1] COc1cc(CN2C[C@@H](C)[C@H](c3nc4c(cnn4C4CCCC4)c(=O)[nH]3)C2)ccc1C (racemic)
[2] Cc1ccn2c(CN3C[C@@H](C)[C@H](c4nc5c(cnn5C5CCCC5)c(=O)[nH]4)C3)c(C)nc2c1 (racemic)
### Prompt Pick one: 1 or 2 . Which has the bigger pIC50 number? Lab log: write the label of the selected item as the result.
### Response 1
(1: 7.27, 2: 6.81)

====

- target desc: human recombinant PDE9 enzyme (Homo sapiens, UniProt O76083)
- Construct: made in house; host or cells: SF-9 insect cells
- test details: Phosphodiesterase 9 (PDE9) inhibitory activity, Scintillation Proximity (SPA) assay
- Assay type: biochemical
- experimental setup: human recombinant PDE9 from SF-9 cells; 50 nM [3H]cGMP; room temperature, 30 min; Examples 3-114; read-out: G5678A (U): IC50
pIC50: −log10 of the molar value.
property label: pIC50

[[record]]
compound = "CC[C@@H]1CN(Cc2ccccc2)C[C@H]1c1nc2c(cnn2C2CCCC2)c(=O)[nH]1 (racemic)"
property_label = "pIC50"
experimental_value = 8.16

[[record]]
compound = "C[C@@H]1CN(Cc2cccc(C(F)(F)F)c2)C[C@H]1c1nc2c(cnn2C2CCCC2)c(=O)[nH]1 (racemic)"
property_label = "pIC50"
experimental_value = 7.95

[[record]]
compound = "C[C@@H]1CN(Cc2cccc3cccnc23)C[C@H]1c1nc2c(cnn2C2CCCC2)c(=O)[nH]1 (racemic)"
property_label = "pIC50"
experimental_value = 8.08

[[record]]
compound = "C[C@@H]1CN(Cc2nc3cnccc3n2C)C[C@H]1c1nc2c(cnn2C2CCOCC2)c(=O)[nH]1"
property_label = "pIC50"
experimental_value = 8.53

[[record]]
compound = "COc1ccc(CN2C[C@@H](C)[C@H](c3nc4c(c(C)nn4C4CCOCC4)c(=O)[nH]3)C2)cn1"
property_label = "pIC50"
experimental_value = 7.85

[[record]]
compound = "CC[C@@H]1CN(Cc2ccccc2)C[C@H]1c1nc2c(cnn2C(C)C)c(=O)[nH]1 (racemic) [Example 39]"
property_label = "pIC50"
experimental_value = 7.24


[1] CC[C@@H]1CN(Cc2cnc(C)cn2)C[C@H]1c1nc2c(cnn2C2CCOCC2)c(=O)[nH]1
[2] CC(C)[C@@H]1CN(Cc2ccccc2)C[C@H]1c1nc2c(cnn2C2CCCC2)c(=O)[nH]1 (racemic)
[3] CC(C)n1ncc2c(=O)[nH]c([C@@H]3CN(Cc4ccc5cccc(F)c5n4)C[C@H]3C)nc21 (racemic)
### Prompt # ascending order, key=pIC50 Returns: the labels listed in the requested order.
### Response 2, 3, 1

[A] CC[C@@H]1CN(Cc2ccc3nccnc3c2)C[C@H]1c1nc2c(cnn2C(C)C)c(=O)[nH]1 (racemic)
[B] C[C@@H]1CN(Cc2ccccc2)C[C@H]1c1nc2c(cnn2CC(F)(F)F)c(=O)[nH]1 (relative stereo)
### Prompt Dear colleague, could you let me know whether A or B has the lower recorded pIC50? Thanks. Mark your answer with the label of the selected entry.
### Response B

====

- target desc: human recombinant PDE9 enzyme (Homo sapiens)
- Construct: made in house; host or cells: SF-9 insect cells
- test details: Phosphodiesterase 9 (PDE9) inhibitory activity, Scintillation Proximity (SPA) assay
- Type: biochemical
- experimental setup: human recombinant PDE9 from SF-9 cells; 50 nM [3H]cGMP; room temperature, 30 min; Examples 3-114; read-out: G5678A (U): IC50
pIC50: −log10 of the molar value.
property label: pIC50

[a] C[C@@H]1CN(C(=O)c2ccccc2)C[C@H]1c1nc2c(cnn2C2CCCC2)c(=O)[nH]1 (racemic)
[b] C[C@@H]1CN(Cc2cnc3ccccc3n2)C[C@H]1c1nc2c(cnn2C2CCOCC2)c(=O)[nH]1
### Prompt Which is greater in pIC50, the first item a or the second item b ? Let me know the label of the one you choose.
### Response b

[A] CC[C@@H]1CN(Cc2ccccc2)C[C@H]1c1nc2c(cnn2C(C)C)c(=O)[nH]1 [Example 40]
[B] O=c1[nH]c([C@@H]2CN(Cc3ccc4nccnc4c3)C[C@H]2C2CC2)nc2c1cnn2C1CCCC1 (racemic)
### Prompt Between the two listed entries A and B , which has its pIC50 at the higher number? Selection: enter the item's label.
### Response B

[P] Cc1nn(C2CCCC2)c2nc([C@@H]3CN(Cc4ccccc4)C[C@H]3C)[nH]c(=O)c12 (racemic)
[Q] CC[C@@H]1CN(Cc2cnc3ccccc3c2)C[C@H]1c1nc2c(cnn2C(C)C)c(=O)[nH]1 (racemic)
[R] C[C@@H]1CN(Cc2ccc(C(F)(F)F)nc2)C[C@H]1c1nc2c(cnn2C2CCOCC2)c(=O)[nH]1
### Prompt Please list these in order of increasing pIC50. Thank you! Your reply should list the labels following the order given in the request.
### Response P, Q, R
(P: 7.36, Q: 7.96, R: 8.43)
